Form field: MIC (one value per entry).
test system: H37Rv strain of M. tuberculosis; experiment: Alamar Blue Susceptibility Test (MABA); format: cell-based; conditions: Mycobacterium tuberculosis; H37Rv strain of M. tuberculosis; Alamar Blue; read-out: MABA (TB growth inhibition, colourimetric assay)
Where a name gives a salt, the structure may show the parent alone.
Result Type: MIC

compound="Clc1ccc(C2(Nc3nc(N4CCCCC4)nc4ccccc34)CC2)cc1 [Compound 141, hydrochloride]" obs_value="10 to 50 µM"
compound=FC1(F)CCN(c2nc(NCc3ccc(OC(F)(F)F)cc3)c3ccccc3n2)CC1 obs_value="10 to 50 µM"
compound="FC(F)(F)c1ccc(CNc2nc(N3CCCCC3)nc3ccccc23)cn1 [Compound 196, hydrochloride]" obs_value="10 to 50 µM"
compound="FC1(F)CCN(c2nc(NCc3ccc(Cl)cc3)nc3ccccc23)CC1 [Compound 146, hydrochloride]" obs_value="10 to 50 µM"
compound=c1ccc(CNc2nc(N3CCCOCC3)nc3ccccc23)cc1 obs_value="10 to 50 µM"
compound=CCN(CC)c1nc(NCc2ccccc2)c2ccccc2n1 obs_value="10 to 50 µM"
compound=COC[C@@H]1CCCN1c1nc(NCc2ccccc2)c2ccccc2n1 obs_value="50 to 128 µM"
compound="Cc1cccc(CNc2nc(N3CCCCC3)nc3ccccc23)c1 [Compound 80, hydrochloride]" obs_value="< 10 µM"

----------
test system: H37Rv strain of M. tuberculosis; assay: Alamar Blue Susceptibility Test (MABA); format: cell-based; conditions: Mycobacterium tuberculosis; H37Rv strain of M. tuberculosis; Alamar Blue; read-out: MABA (TB growth inhibition, colourimetric assay)
Structures can show the parent of a compound that is named as a salt.
Form field: MIC (one value per entry).
Result Type: MIC

compound=Clc1ccc(CNc2nc(N3CCCCC3)nc3ccccc23)s1 obs_value="< 10 µM"
compound="C[C@@H](Nc1nc(N2CCCCC2)nc2ccccc12)c1ccc(F)cc1 [Compound 98, hydrochloride]" obs_value="< 10 µM"
compound=c1ccc(C(Nc2nc(N3CCCCC3)nc3ccccc23)c2ccccc2)cc1 obs_value="10 to 50 µM"
compound=Fc1ccc(CNc2nc(N3CCCCC3)nc3ncccc23)cc1 obs_value="10 to 50 µM"
compound=C[C@H](Nc1nc(N2CCCCC2)nc2ccccc12)c1ccccc1 obs_value="10 to 50 µM"
compound=Fc1ccc(CNc2nc(N3CCC(F)(F)CC3)nc3ccccc23)cc1 obs_value="10 to 50 µM"
compound=CC(C)C(=O)N1CCN(c2nc(NCc3ccccc3)c3ccccc3n2)CC1 obs_value="50 to 128 µM"
compound=Cc1ccc(C(C)(C)Nc2nc(N3CCCC3)nc3ccccc23)cc1 obs_value="10 to 50 µM"
compound=Fc1ccc(CNc2nc(NCC3CCCCC3)nc3ccccc23)cc1 obs_value="10 to 50 µM"
compound="COc1cc2nc(N3CCC(F)(F)CC3)nc(NCc3ccc(F)cc3)c2cc1OC [Compound 151, hydrochloride]" obs_value="10 to 50 µM"
compound=CN(Cc1ccccc1)c1nc(N2CCCCC2)nc2ccccc12 obs_value="< 10 µM"
compound="Clc1ccc(CNc2nc(N3CCCCC3)c3ccccc3n2)cc1 [Compound 110, hydrochloride]" obs_value="10 to 50 µM"
compound=COc1cc2nc(N3CCOCC3)nc(NCc3ccccc3)c2cc1OC obs_value="50 to 128 µM"
compound="Fc1ccc(CNc2nc(NCc3ccc(F)cc3)c3ccccc3n2)cc1 [Compound 119, hydrochloride]" obs_value="10 to 50 µM"
compound=Clc1ccc(CNc2nc(N3CCCCC3)nc3ccccc23)c(Cl)c1 obs_value="< 10 µM"
compound=OC[C@@H]1CCCN1c1nc(NCc2ccc(F)cc2)c2ccccc2n1 obs_value="50 to 128 µM"
compound=Clc1ccc(CNc2nc(N3CCCCC3)nc3ccccc23)cc1 obs_value="< 10 µM"
compound=FC(F)(F)Oc1ccc(CNc2nc(N3CCCCC3)nc3ccccc23)cc1 obs_value="< 10 µM"
